Target Or Test System: Vasoactive intestinal polypeptide receptor 2 (Homo sapiens) (UniProt P41587)
Sequence (P41587 whole entry): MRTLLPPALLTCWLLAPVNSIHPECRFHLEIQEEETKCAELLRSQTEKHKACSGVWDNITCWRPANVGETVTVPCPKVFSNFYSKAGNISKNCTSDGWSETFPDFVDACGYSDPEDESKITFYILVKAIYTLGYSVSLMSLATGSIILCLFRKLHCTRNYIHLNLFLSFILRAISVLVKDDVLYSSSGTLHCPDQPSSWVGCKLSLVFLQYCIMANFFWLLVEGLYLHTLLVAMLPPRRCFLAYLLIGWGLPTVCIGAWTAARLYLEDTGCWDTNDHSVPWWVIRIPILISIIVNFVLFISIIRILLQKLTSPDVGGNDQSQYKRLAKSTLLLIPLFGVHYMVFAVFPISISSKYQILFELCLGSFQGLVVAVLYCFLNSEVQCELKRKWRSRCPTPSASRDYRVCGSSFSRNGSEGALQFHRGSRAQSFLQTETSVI
Test: Antagonist activity at recombinant human N-terminal signal peptide/FLAG epitope-tagged VIPR2 expressed in HEK293 cells co-expressing CAMYEL assessed as inhibition of VIP-induced cAMP accumulation at 1 uM preincubated for 5 mins with luciferin, coelenterazine H followed by VIP addition measured after 5 mins by BRET assay relative to control
Type: functional, cell-based
Value Kind: inhibition (%)

Look over these answered cases.
O=C(NC[C@@H](O)C[C@@H](Cc1ccccc1)C(=O)N[C@H]1c2ccccc2C[C@H]1O)c1cccc([N+](=O)[O-])c1; 11
Cc1ccc(S(=O)(=O)NC[C@@H](O)C[C@@H](Cc2ccccc2)C(=O)N[C@H]2c3ccccc3C[C@H]2O)cc1; 63.5
NC(=O)[C@H](Cc1ccccc1)C[C@H](O)CNS(=O)(=O)c1ccc([N+](=O)[O-])cc1; 3.6
O=C(NCCc1cccc(Cl)c1)[C@H](Cc1ccccc1)C[C@H](O)CNS(=O)(=O)c1ccc([N+](=O)[O-])cc1; -3.4
CCCCNC(=O)c1ccc(S(=O)(=O)NC[C@@H](O)C[C@@H](Cc2ccccc2)C(=O)N[C@H]2c3ccccc3C[C@H]2O)cc1; 5.9
O=C(Cc1cccc(Cl)c1)NC[C@@H](O)C[C@@H](Cc1ccccc1)C(=O)N[C@H]1c2ccccc2C[C@H]1O; 16
O=C(CCl)NC[C@@H](O)C[C@@H](Cc1ccccc1)C(=O)N[C@H]1c2ccccc2C[C@H]1O; 19.2
CC(=O)Nc1ccc(S(=O)(=O)NC[C@H](C[C@@H](Cc2ccccc2)C(=O)N[C@H]2c3ccccc3C[C@H]2O)OC(C)=O)cc1; 32.3

P. CC1CCC(NC(=O)[C@@H](Cc2ccccc2)C[C@H](O)CNS(=O)(=O)c2ccc([N+](=O)[O-])cc2)CC1 (stereo not given in full)
Q. CC(C)c1ccc(S(=O)(=O)NC[C@@H](O)C[C@@H](Cc2ccccc2)C(=O)N[C@H]2c3ccccc3C[C@H]2O)cc1
Among P and Q , which shows a numerically higher inhibition result? # answer = label of selected item Q

I. Cc1ccc(S(=O)(=O)NC[C@@H](O)C[C@@H](Cc2ccccc2)C(=O)N[C@H]2c3ccccc3C[C@H]2O)c(C)c1
II. CCN(CC)C(=O)c1ccc(S(=O)(=O)NC[C@@H](O)C[C@@H](Cc2ccccc2)C(=O)N[C@H]2c3ccccc3C[C@H]2O)cc1
Among I and II , which shows a numerically higher inhibition result? # answer = label of selected item I
(I: 10.9%, II: 5.9%)
